Organism: Homo sapiens
assay_method_text: To identify inhibition of the IFN signalling (Jak-Stat) pathway via expression of an eGFP reporter gene under the control of an IFN-stimulated response element (ISRE) containing MxA promoter.
Format: functional
Set-up: scale not given: direction of the effect not stated beside the values
condition: 30 µM
# Lookup of reported Percent Effect keyed by entry
result_type: Percent Effect

> print(dat)
                                    compound   result
 1  CC(C)CN1CCC2(CC1)C(=O)Nc1ccc(C(=O)N(C)C)cc12    7.43%
 2  Cc1noc(C)c1CN1CC[C@H]2OCC[C@@]2(C(=O)N2CCCO2)C1   -11.1%
 3  CCN1C[C@H]2C[C@H](C(=O)NCc3cccnc3)[C@@H](C1)O2   -10.6%
 4  CC(=O)N1CCOCC2(CN(Cc3ccccn3)CCO2)C1 (configuration not stated)   -30.1%
 5  COc1ccc(C)cc1CC(=O)N1CCN(CC(C)O)CC1 (configuration not stated)  0.0446%
 6  c1cncc(OC[C@]23COC[C@H]2CN(Cc2cccs2)C3)c1    11.9%
 7  CN(C)C(=O)CN1CCN(C(=O)Cc2csc(-c3ncccn3)n2)CC1    23.7%
 8      NC[C@H]1[C@H]2CN(Cc3ccccc3)C[C@@H]12      31%
 9  Cn1cc(CN2C[C@@H]3[C@@H](C2)OCC(=O)N3Cc2ccncc2)cn1    8.18%
10         COc1ccc(Cl)cc1CC(=O)N1CCN(CCO)CC1    12.1%
11       CN1CCC2(CC1)C(=O)N(CC1CC1)c1ccccc12    2.83%
12  O=C(c1ccsc1)N1CCN2C[C@H](OCc3cccnc3)C[C@H]2C1    8.09%
13  O=C1CSC(c2ccsc2)c2c(n(C3CCOCC3)[nH]c2=O)N1 (configuration not stated)    6.12%
14  Cc1cc(CN2CC[C@H]3OCC[C@@]3(C(=O)NC(C)C)C2)no1    16.3%
15  O=C([C@H]1C[C@H]2OCC[C@H]2N(Cc2cccnc2)C1)N1CCCO1    14.1%
16  O=C(Cc1c(F)cccc1F)N1CCN(CC(=O)N2CCCC2)CC1    12.9%
17  Fc1cnc(N2CCO[C@H]3CN(CC4CCC4)C[C@H]32)nc1    5.62%
18  Cn1cc(C(=O)N2CC[C@@H]3[C@@H]2CCN3Cc2cccnc2)cn1   -13.9%
19  c1cncc(CO[C@H]2CC[C@H]3[C@@H]2OCCN3C2CCOCC2)c1   -1.77%
20  CCN1CCC2(COCc3cnc(NCC4CC4)nc32)C1 (configuration not stated)    18.1%
21  CN(Cc1cccnc1)[C@@H]1CN(CC2CC2)[C@@H]2CCCO[C@H]12   -1.28%
22  Cc1cccc(CN2C(=O)C[C@H]3[C@@H]2CCN3Cc2ccccn2)n1   -7.67%
23      CCNC(=O)NC(=O)CNC1(c2noc(C)n2)CCCCC1    6.39%
24   O=C(Cn1ccc2c(Cl)cccc21)N1CCC2(CC1)OCCO2    12.8%
25  Cc1cccc(CO[C@@H]2CC[C@H]3[C@H]2OCCN3Cc2ccsc2)n1    20.3%
26  c1cncc(N2CCCC3(CN(Cc4cccs4)CCO3)C2)c1 (configuration not stated)    29.1%
27  Cc1cc(N2CCN3CCCCC3C2)n2nc(C)c(C)c2n1 (configuration not stated)   -15.5%
28  CCN1CCC2(CCC1=O)CN(c1ccnc(SC)n1)CCN2C (configuration not stated)    7.14%
29  Cc1ccc(N2CCO[C@H]3CN(CC4CC4)C[C@H]32)nn1   -33.8%
30  COCCN1CCN(Cc2ccncc2)[C@H]2CS(=O)(=O)C[C@H]21    6.91%
31  CC(C)NC(=O)[C@H]1C[C@@H]2[C@@H](C1)OCCN2Cc1cccnc1    7.17%
32  O=C1CC2(CCN(CC3CC3)C2)CN1c1cccnc1 (configuration not stated)   -22.5%
33  CN1CCC2(COCc3cnc(N4CCOCC4)nc32)C1 (configuration not stated)   -2.62%
34  COCC(=O)NC(C)Cc1cccc(Br)c1 (configuration not stated)    12.7%
35                  CNCCc1nc2cc(Cl)ccc2[nH]1    5.87%
36  CCOCC(O)CN1CCN(C(=O)Cc2ccc(C)nc2)CC1 (configuration not stated)    10.3%
37            CC(C)CN1CCC2(C1)CN(c1ncccn1)C2    5.15%
38  O=C(c1cscn1)N1CCN2C[C@H](OCc3cccnc3)C[C@H]2C1   0.411%
39  c1cc(CO[C@@H]2CC[C@H]3[C@H]2OCCN3CC2CCOCC2)ccn1    45.1%
40  CC(C)N1CCOCC2(CN(Cc3ccccn3)CCO2)C1 (configuration not stated)    5.84%
41  CC(Cc1c(F)cccc1F)NC(=O)Nc1cnn(CC(N)=O)c1 (configuration not stated)      15%
42        COc1cccc(CCNCc2c(C)nn(C)c2N(C)C)c1   -20.1%
43  COc1ccc(C(=O)C2CCCN(Cc3ccncc3)C2)c(OC)c1 (configuration not stated)    10.7%
44      O=C(Cc1csc(-c2ccco2)n1)N1CCN(CCO)CC1    11.1%
45  CNC(=O)CN1CCOCC2(CCCN(Cc3cccnc3)C2)C1 (configuration not stated)   -2.53%
46  Cc1oc(-c2ccco2)nc1CC(=O)N1CCN(CC(C)(C)O)CC1    22.9%
47  Cc1noc(C)c1CN1CCCC2(CCN(C(=O)CC3CC3)C2)C1 (configuration not stated)    12.4%
